Where these numbers come from: the supplement of paper PMC13380429

Documented cell viability across a set of compounds
test system: Vero E6; test: cell viability relative to DMSO; higher = less toxic; settings: 72 h; 10000 nM
A number alone suffices; assume %.

// known answers, use as guide
compound	unit.of.measurement	cell viability
FC(F)(F)Oc1ccc2nc(-c3ccc(OCCOCCOc4ccc(-c5nc6ccc(OC(F)(F)F)cc6[nH]5)nc4)cn3)[nH]c2c1	%	56.2
CO/N=C(\C(=O)N[C@@H]1C(=O)N2C(C(=O)O)=C(CSc3nc(C)c(CC(=O)O)s3)CS[C@H]12)c1csc(N)n1	%	106
CNC(=O)CN1CCC(Oc2cc3c(Nc4cccc(Cl)c4F)ncnc3cc2OC)CC1	%	42.1
COC(=O)C1=C(C)NC(C)=C(C(=O)OC2CCCN(Cc3ccccc3)C2)C1c1cccc([N+](=O)[O-])c1 (stereo not drawn)	%	104

Q: Can you look up the measured cell viability of `Fc1ccc(-c2nc(-c3c(F)cccc3F)[nH]c2-c2ccncc2)cc1` for me?
Result: 93.7

Q: Can you look up the measured cell viability of `Nc1nc(=O)c2sc(=O)n([C@@H]3O[C@H](CO)[C@@H](O)[C@H]3O)c2[nH]1` for me?
Result: 102

Q: Can you look up the measured cell viability of `Cn1c(=O)c(F)c(Nc2ccc(I)cc2F)c2c(=O)n(C[C@@H](O)CO)cnc21` for me?
Result: 42.2

Q: Can you look up the measured cell viability of `COc1c(C)c(C(=O)c2ccc(N)c(C(=O)O)c2)n2ccccc12` for me?
Result: 106

Q: Can you look up the measured cell viability of NC[C@H]1O[C@H](O[C@H]2[C@H](O[C@@H]3O[C@H](CO)[C@@H](O)[C@H]3O)[C@@H](O)[C@H](N)C[C@@H]2N)[C@H](N)[C@@H](O)[C@@H]1O [ribostamycin-sulfate] for me?
Result: 102

Q: Can you look up the measured cell viability of `Fc1ccc(CN2CCC(Nc3ccc(C(F)(F)F)nn3)CC2)cc1F` for me?
Result: 104

Q: Can you look up the measured cell viability of `O=C(Nc1ccc(O)cc1)c1ccccc1O` for me?
Result: 110

Q: Can you look up the measured cell viability of `CCN(CC)CCNC(=O)c1ccccc1I` for me?
Result: 110

Q: Can you look up the measured cell viability of `N=C(N)S/C=C\C(=O)O` for me?
Result: 106

Q: Can you look up the measured cell viability of `CN1CCN(C(=O)CN[C@@H]2C[C@H]2c2ccc(OCc3ccccc3)cc2)CC1` for me?
Result: 89.1

Q: Can you look up the measured cell viability of COc1cc2c(cc1OC)-c1cc3ccc(OC)c(OC)c3c[n+]1CC2 [palmatine-chloride] for me?
Result: 101

Q: Can you look up the measured cell viability of `Cc1cc(OCc2nnc(SC3CCCC3)n2-c2cccnc2)ccc1-c1ccc(S(C)(=O)=O)cc1` for me?
Result: 0.3

Q: Can you look up the measured cell viability of `Cc1nc2ccc(-n3ncc(C(=O)c4cc5ccccc5[nH]4)c3N)cc2[nH]1` for me?
Result: 69

Q: Can you look up the measured cell viability of `OCc1c[nH]c2ccccc12` for me?
Result: 97.5

====

system: HepG2; assay: cell viability relative to DMSO; higher = less toxic; settings: 72 h; 1000 nM
Just a reminder that ties go to 0 (no): only cell viability strictly below 90% counts as 1 (yes).

Use these answered entries as a reference point.
compound	class.assignment
Cn1c(Nc2ccc(C(F)(F)F)cc2)nc2cc(Oc3ccnc(-c4ncc(C(F)(F)F)[nH]4)c3)ccc21 [RAF265]	1 (yes)
FC(F)(F)Oc1ccc2nc(-c3ccc(OCCOCCOc4ccc(-c5nc6ccc(OC(F)(F)F)cc6[nH]5)nc4)cn3)[nH]c2c1 [AI-10-49]	1 (yes)
CN(C)CCN1C(=O)c2cccc3cc(NC(N)=O)cc(c23)C1=O [unbs-5162]	1 (yes)
COc1cc(/C=C/C(N)=O)cc(OC)c1OC [cintriamide]	0 (no)
NCCCC[C@@H]1NC(=O)[C@@H](Cc2c[nH]c3ccccc23)NC(=O)[C@H](c2ccccc2)NC(=O)[C@@H]2C[C@@H](OC(=O)NCCN)CN2C(=O)[C@H](Cc2ccccc2)NC(=O)[C@H](Cc2ccc(OCc3ccccc3)cc2)NC1=O [pasireotide]	0 (no)

Q: I wonder whether Cc1cc(Cl)ccc1OCCCC(=O)NO [droxinostat] has cell viability below 90%. Can you tell?
Result: 0 (no)

Q: I wonder whether Cc1cc(C)c(CNC(=O)c2cc(-c3ccc(N4CCN(C)CC4)nc3)cc3c2c(C)cn3C(C)C)c(=O)[nH]1 [GSK503] has cell viability below 90%. Can you tell?
Result: 0 (no)

====

test system: HepG2; assay: cell viability relative to DMSO; higher = less toxic; conditions: 72 h; 10000 nM
attribute.measured: cell viability (%)
A number alone suffices; assume %.

// known answers, use as guide
> print(dat)
                                   molecule  test.system  number
1  CC[C@@H](C)Nc1cc(C(=O)N[C@H]2C[C@H]3CC[C@@H](C2)N3c2ccc(C(=O)C3CC3)cn2)c(C)cc1C(N)=O        HepG2       1
2  O=C(O)[C@H](O)[C@@H](O)[C@H](O)[C@H](O)CO [sodium-gluconate]        HepG2      91
3            C[n+]1c2cc(N)ccc2cc2ccc(N)cc21        HepG2     1.2
4  Nc1ncn([C@H]2C[C@H](O)[C@@H](CO)O2)c(=O)n1        HepG2    69.8
5      CC1(C)C(=O)NC2=C1C(=O)C(=O)c1ccccc12        HepG2    21.3

Q: // fetch HepG2 cell viability for `Cc1nc2ccc(-n3ncc(C(=O)c4cc5ccccc5[nH]4)c3N)cc2[nH]1`
Result: 76.2

Q: // fetch HepG2 cell viability for `CCN(CC)CCNC(=O)c1ccccc1I`
Result: 100

Q: // fetch HepG2 cell viability for `OCCn1cc(-c2ccc3c(c2)CC/C3=N\O)c(-c2ccncc2)n1`
Result: 25

Q: // fetch HepG2 cell viability for CCN(CC)CCNC(=O)c1cc(S(C)(=O)=O)ccc1OC [tiapride]
Result: 97.5

====

test system: A549-ACE2; test: drug-induced phospholipidosis relative to tamoxifen; higher = more phospholipidosis; conditions: 10 µM; 24 h
attribute.measured: drug-induced phospholipidosis (%)
A number alone suffices; assume %.

> print(dat)
                            compound.smiles  number
1  CCN(CC)CCCCNc1ncc2cc(-c3cc(OC)cc(OC)c3)c(NC(=O)NC(C)(C)C)nc2n1     234
2  CN(C)CCCCC(=O)Nc1ccc(NC(=S)NC(=O)c2ccc(C(C)(C)C)cc2)cc1    56.6
3  Cc1nnc2n1-c1sc(CCC(=O)N3CCOCC3)cc1C(c1ccccc1Cl)=NC2   -1.44
4  CNC(=O)c1cc(Oc2ccc(NC(=O)Nc3ccc(Cl)c(C(F)(F)F)c3)cc2)ccn1   -20.6

Consider the record given below.
Q: Can you look up the measured drug-induced phospholipidosis of `C#C[C@]1(O)CC[C@H]2[C@@H]3CCc4cc(OC5CCCC5)ccc4[C@H]3CC[C@@]21C` for me?
Result: 13.9

====

Documented drug-induced phospholipidosis across a set of molecules
tested on: A549-ACE2; experiment: drug-induced phospholipidosis relative to tamoxifen; higher = more phospholipidosis; settings: 6.66667 µM; 48 h
A number alone suffices; assume %.

// known answers, use as guide
> print(dat)
                            compound.smiles  test.system             attribute.measured  number
1  CC(C)n1cnc2c(NCCc3ccc(O)cc3)nc(-c3csc4ccccc34)nc21    A549-ACE2  drug-induced phospholipidosis    14.7
2  CCCCCCCCNC(=O)/C(C#N)=C/c1cn(CCCN(C)C)c2ccccc12    A549-ACE2  drug-induced phospholipidosis      92
3  [Cl][Ru-]([Cl])([Cl])[Cl].[Na+].c1ccc2[nH]ncc2c1.c1ccc2[nH]ncc2c1    A549-ACE2  drug-induced phospholipidosis   -0.18
4          O=[N+]([O-])/C=C/c1ccc2c(c1)OCO2    A549-ACE2  drug-induced phospholipidosis   -0.19

Consider the record given below.
Q: Can you look up the measured drug-induced phospholipidosis of `CNC(=O)c1cc(Oc2ccc(NC(=O)Nc3ccc(Cl)c(C(F)(F)F)c3)cc2)ccn1` for me?
Result: 0.31

====

test system: U2OS; experiment: cell viability relative to DMSO; higher = less toxic; details: 72 h; 1 nM
Documented cell viability across a set of compounds
A number alone suffices; assume %.

Q: Can you look up the measured cell viability of CCOC(=S)SSC(=S)OCC [dixanthogen] for me?
Result: 104
